Where these numbers come from: patent US20110166063A1

- Measurement description: Pharmacokinetic study of protegrin conjugates, single IV dose in rats
- Assay type: in vivo, Sprague-Dawley rats
- Details: rat, in vivo, test compound in plasma (non-releasable conjugates, native PG-1), 1.6 mg/kg equivalent protein mass IV, Mean ± SD, read-out: Vss
Reported metric: Vd (L/kg)
API: value field is a number in L/kg; no unit string.

[Q] Requested field: Vd. Item: CC(C)C[C@H](NC(=O)[C@H](CCCNC(=N)N)NC(=O)CNC(=O)CNC(=O)[C@@H](N)CCCNC(=N)N)C(=O)N[C@H]1CSSC[C@@H](C(=O)N[C@H](C(=O)NCC(=O)N[C@@H](CCCNC(=N)N)C(N)=O)C(C)C)NC(=O)[C@H](C(C)C)NC(=O)[C@@H]2CSSC[C@H](NC(=O)[C@H](Cc3ccc(O)cc3)NC1=O)C(=O)N[C@@H](CCCNC(=N)N)C(=O)N[C@@H](CCCNC(=N)N)C(=O)N[C@@H](CCCNC(=N)N)C(=O)N[C@@H](Cc1ccccc1)C(=O)N2 [Protegrin-1, reference compound]
[A] 0.848

* * *

- Measurement description: Pharmacokinetic study of protegrin conjugates, single IV dose in rats
- Assay type: in vivo, Sprague-Dawley rats
- Details: rat, in vivo, protegrin-1 in plasma (released or native), 1.6 mg/kg equivalent protein mass IV
Reported metric: AUC(0-inf) (ng·h/mL)
# output: bare number, implied unit ng·h/mL

[Q] What AUC(0-inf) value was documented for this compound, CC(C)C[C@H](NC(=O)[C@H](CCCNC(=N)N)NC(=O)CNC(=O)CNC(=O)[C@@H](N)CCCNC(=N)N)C(=O)N[C@H]1CSSC[C@@H](C(=O)N[C@H](C(=O)NCC(=O)N[C@@H](CCCNC(=N)N)C(N)=O)C(C)C)NC(=O)[C@H](C(C)C)NC(=O)[C@@H]2CSSC[C@H](NC(=O)[C@H](Cc3ccc(O)cc3)NC1=O)C(=O)N[C@@H](CCCNC(=N)N)C(=O)N[C@@H](CCCNC(=N)N)C(=O)N[C@@H](CCCNC(=N)N)C(=O)N[C@@H](Cc1ccccc1)C(=O)N2 [Protegrin-1, reference compound] ?
[A] 1160

* * *

- Study system: GPR54 G-Protein coupled receptor (Homo sapiens)
- Construct: host or cells: Chem-1 host cells
- Sequence (Q969F8 whole entry): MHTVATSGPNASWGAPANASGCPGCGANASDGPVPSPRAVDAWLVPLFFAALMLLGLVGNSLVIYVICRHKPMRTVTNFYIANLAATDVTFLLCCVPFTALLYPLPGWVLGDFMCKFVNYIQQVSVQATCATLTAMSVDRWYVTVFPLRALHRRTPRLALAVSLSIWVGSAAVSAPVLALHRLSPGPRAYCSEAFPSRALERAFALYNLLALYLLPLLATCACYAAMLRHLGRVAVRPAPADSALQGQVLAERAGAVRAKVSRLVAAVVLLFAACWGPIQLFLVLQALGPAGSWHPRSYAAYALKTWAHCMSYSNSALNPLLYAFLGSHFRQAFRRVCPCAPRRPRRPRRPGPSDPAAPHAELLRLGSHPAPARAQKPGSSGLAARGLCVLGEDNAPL
- Measurement description: FLIPR calcium flux agonist assay on GPR54
- Assay type: cell-based
- Details: agonist activation at GPR54; no release incubation
Ends that are not written are not given here.
Reported metric: pEC50
Recall that pEC50 is obtained by taking minus log10 of the concentration measured in molar.

[Q] Returns the measured pEC50 for the input substance. Input: GTSLSPPPESSGSPQQPGLSAPHSRQIPAPQGAVLVQREKDLPNYNWNSFGLRF-NH2 [KP54, Kisspeptin-54]
[A] 6.72

* * *

- Measurement description: Pharmacokinetic study of protegrin conjugates, single IV dose in rats
- Type: in vivo, Sprague-Dawley rats
- Details: rat, in vivo, protegrin-1 in plasma (released or native), 1.6 mg/kg equivalent protein mass IV
Reported metric: half-life (min)
API: value field is a number in min; no unit string.

[Q] May I ask what half-life has been recorded for CC(C)C[C@H](NC(=O)[C@H](CCCNC(=N)N)NC(=O)CNC(=O)CNC(=O)[C@@H](N)CCCNC(=N)N)C(=O)N[C@H]1CSSC[C@@H](C(=O)N[C@H](C(=O)NCC(=O)N[C@@H](CCCNC(=N)N)C(N)=O)C(C)C)NC(=O)[C@H](C(C)C)NC(=O)[C@@H]2CSSC[C@H](NC(=O)[C@H](Cc3ccc(O)cc3)NC1=O)C(=O)N[C@@H](CCCNC(=N)N)C(=O)N[C@@H](CCCNC(=N)N)C(=O)N[C@@H](CCCNC(=N)N)C(=O)N[C@@H](Cc1ccccc1)C(=O)N2 [Protegrin-1, reference compound] ?
[A] 21
